test system: Mus musculus; experiment: Toxicity in intrathecally dosed ICR-CD1 mouse assessed as dose tolerance after 24 hrs; assay type: organism-based; conditions: in vivo, icv_or_intrathecal
ATTRIBUTE_MEASURED: Activity

COc1cc2ccccc2cc1C(=O)N[C@@H]1CC[C@@]2(O)[C@H]3Cc4ccc(O)c5c4[C@@]2(CCN3CC2CC2)[C@H]1O5 Non-toxic
O=C(N[C@@H]1CC[C@@]2(O)[C@H]3Cc4ccc(O)c5c4[C@@]2(CCN3CC2CC2)[C@H]1O5)c1ccc2cc(F)ccc2c1 Non-toxic
O=C(N[C@@H]1CC[C@@]2(O)[C@H]3Cc4ccc(O)c5c4[C@@]2(CCN3CC2CC2)[C@H]1O5)c1nccc2ccccc12 Non-toxic
Cl.O=C(N[C@@H]1CC[C@@]2(O)[C@H]3Cc4ccc(O)c5c4[C@@]2(CCN3CC2CC2)[C@H]1O5)c1ccc2ccccc2c1 Non-toxic

Now let's try a different one.
The reported value for O=C(N[C@@H]1CC[C@@]2(O)[C@H]3Cc4ccc(O)c5c4[C@@]2(CCN3CC2CC2)[C@H]1O5)c1cnc2ccccc2n1 in terms of Activity is Non-toxic
